Where do the numbers come from? From patent US11498903B2.

Measured pEC50 of individual entries
System Name: human APJ receptor (Homo sapiens)
Construct: expressed in transfected cells
Sequence (P35414 whole entry): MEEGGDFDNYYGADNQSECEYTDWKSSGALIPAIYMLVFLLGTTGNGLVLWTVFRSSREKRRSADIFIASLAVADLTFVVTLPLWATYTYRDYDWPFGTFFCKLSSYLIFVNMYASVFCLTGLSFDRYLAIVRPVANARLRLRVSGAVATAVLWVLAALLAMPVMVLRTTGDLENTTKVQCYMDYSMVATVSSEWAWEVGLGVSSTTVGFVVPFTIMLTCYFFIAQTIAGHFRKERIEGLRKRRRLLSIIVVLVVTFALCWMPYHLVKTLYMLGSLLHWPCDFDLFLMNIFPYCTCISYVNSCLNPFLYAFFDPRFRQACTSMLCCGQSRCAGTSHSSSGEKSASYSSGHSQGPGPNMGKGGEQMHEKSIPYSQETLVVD
Protocol: Intracellular cAMP accumulation assay (APJ hcAMP, HTRF)
Assay type: cell-based
Test Conditions: human APJ, cAMP; potency range class; read-out: APJ cAMP Human EC50
pEC50: −log10 of the molar value.

{"columns": ["Compound", "pEC50"],
 "data": [
  ["COC[C@@H](NC(=O)c1ccc(-c2c(Cl)cccc2-c2nc3ccccc3[nH]2)c(C(=O)O)c1)C1CC1", "6.30 to 7.00"],
  ["CCC[C@H](NC(=O)c1ccc(-c2c(Cl)cccc2-c2nc3ccccc3[nH]2)c(C(=O)O)c1)c1ccccc1F", "> 8.00"],
  ["CC(C)CC(NC(=O)c1ccc(-c2cc(Cl)ccc2-c2nc3ccccc3[nH]2)c(C(=O)O)c1)c1ccccc1 (racemic)", "> 8.00"],
  ["O=C(NC(CC1CCOCC1)c1ccccc1)c1ccc(-c2cc(Cl)ccc2-c2nc3ccccc3[nH]2)c(C(=O)O)c1 (stereo not shown)", "6.30 to 7.00"],
  ["CCCC(NC(=O)c1ccc(-c2c(Cl)cccc2-c2nc3ccccc3[nH]2)c(C(=O)O)c1)c1c(C)cc(C)cc1C (single isomer, unassigned)", "> 8.00"],
  ["CCCC(NC(=O)c1ccc(-c2c(Cl)cccc2-c2nc3ccccc3[nH]2)c(C(=O)O)c1)c1ccncc1 (single isomer, unassigned) [Example 168]", "> 8.00"],
  ["CCCC(NC(=O)c1ccc(-c2c(Cl)cccc2-c2nc3cc(Cl)c(F)cc3[nH]2)c(C(=O)O)c1)C1CCCCC1 (single isomer, unassigned)", "> 8.00"],
  ["CCCC(NC(=O)c1ccc(-c2c(Cl)cccc2-c2nc3ccccc3[nH]2)c(C(=O)O)c1)C1CCCC1 (single isomer, unassigned)", "> 8.00"]
]}

compound CCC(NC(=O)c1ccc(-c2cc(Cl)ccc2-c2nc3ccccc3[nH]2)c(C(=O)O)c1)c1ccncc1 (racemic) , pEC50 observed: 7.00 to 8.00

For reference, reported pEC50 for CCCC(NC(=O)c1ccc(-c2cc(Cl)ccc2-c2nc3cc(C(C)(C)C)ccc3[nH]2)c(C(=O)OC)c1)c1ccccc1OC (stereo not shown) stands at 7.00 to 8.00

According to the records, this compound COC(=O)c1cc(C(=O)N[C@H](c2ccc(Cl)cc2)C2CC2)ccc1-c1c(Cl)cccc1-c1nc2cc(OC)c(F)cc2[nH]1 (single isomer, unassigned) displays pEC50 of 6.30 to 7.00

get_value(item= O=C(NC(c1ccccc1)C1CC1)c1ccc(-c2cc(Cl)ccc2-c2nc3ccccc3[nH]2)c(C(=O)O)c1 (single isomer, unassigned) , readout=pEC50) returns > 8.00

Query COc1cc2nc(-c3cccc(Cl)c3-c3ccc(C(=O)N[C@H](c4ccc(Cl)cc4)C4CC4)cc3C(=O)O)[nH]c2cc1F (single isomer, unassigned) yields pEC50 of > 8.00

Just so you know, measured pEC50 for CCCC(NC(=O)c1ccc(-c2c(Cl)cccc2-c2nc3ccccc3[nH]2)c(C(=O)O)c1)c1cncs1 (single isomer, unassigned) [Example 186] came out at > 8.00

Consider O=C(NC(c1ccccc1)C1CC1)c1ccc(-c2c(Cl)cccc2-c2nc3ccccc3[nH]2)c(C(=O)O)c1 (single isomer, unassigned) . Its measured pEC50 is > 8.00

// recorded pEC50 for CCCC(NC(=O)c1ccc(-c2c(Cl)cccc2-c2nc3ccccc3[nH]2)c(C(=O)O)c1)C1CCCCCC1 (single isomer, unassigned) : > 8.00

Looking up COc1cc2nc(-c3cccc(Cl)c3-c3ccc(C(=O)N[C@H](c4ccc(Cl)cc4)C4CC4)cc3CO)[nH]c2cc1F (single isomer, unassigned) , I found its pEC50 recorded as 7.00 to 8.00

Entry CCCC(NC(=O)c1ccc(-c2c(Cl)cccc2-c2nc3ccccc3[nH]2)c(C(=O)O)c1)c1ccccc1OC(F)(F)F (single isomer, unassigned) — recorded pEC50 = 7.00 to 8.00
